// values below are reported EC50
System: genotype 4a (ED43) stable HCV replicon in Huh-7-derived cells
Assay: Stable subgenomic HCV replicon EC50, genotype 4a (Renilla luciferase)
Assay type: cell-based, hepatitis C virus
Conditions: Hepatitis C virus, 72 h, read-out: EC50 4A RLUC
# value in nM; strip the unit string

Answered examples (3):
{"compound": "CCC[C@@H]1[C@@H]2CN(C(=O)[C@H](C(C)(C)C)NC(=O)O[C@@H]3C[C@H]3CCCCC(F)(F)c3nc4ccc(OC)cc4nc3O2)[C@@H]1C(=O)N[C@]1(C(=O)NS(=O)(=O)C2(C)CC2)C[C@H]1C(F)F [Example 65]", "EC50 / nM": 8.1}
{"compound": "CC[C@]12C[C@@H]1CCCCCc1nc3ccc(OC)cc3nc1O[C@H]1CN(C(=O)[C@H](C(C)(C)C)NC(=O)O2)[C@H](C(=O)N[C@]2(C(=O)NS(=O)(=O)C3(C)CC3)C[C@H]2C(F)F)[C@@H]1C [Example 42]", "EC50 / nM": 14}
{"compound": "COc1ccc2nc3c(nc2c1)O[C@H]1CN(C(=O)[C@H](C(C)(C)C)NC(=O)O[C@@H]2C[C@@H]4C[C@@H]4[C@H]2CCCCC3(F)F)[C@H](C(=O)N[C@]2(C(=O)NS(=O)(=O)C3(C)CC3)C[C@H]2C(F)F)[C@@H]1C [Example 81]", "EC50 / nM": 4.3}

Moving on to another compound below.
Quick one: EC50 for CC[C@@]12C[C@H]1CCCCCc1nc3ccc(OC)cc3nc1O[C@H]1CN(C(=O)[C@H](C(C)(C)C)NC(=O)O2)[C@H](C(=O)N[C@]2(C(=O)NS(=O)(=O)C3(C)CC3)C[C@H]2C(F)F)[C@@H]1C [Example 43] ?
3.6

###

// values below are reported EC50
Test system: genotype 1a (H77) stable HCV replicon in Huh-7-derived cells
Test: Stable subgenomic HCV replicon EC50, genotype 1a (Renilla luciferase)
Type: cell-based, hepatitis C virus
Conditions: Hepatitis C virus, stable replicon genotype 1a, 72 h, read-out: EC50 1A RLUC
# value in nM; strip the unit string

{"item.smiles": "CC[C@@H]1[C@@H]2CN(C(=O)[C@H](C(C)(C)C)NC(=O)O[C@@H]3C[C@H]3CCCCCc3nc4ccc(OC)cc4nc3O2)[C@@H]1C(=O)N[C@]1(C(=O)NS(=O)(=O)C2(F)CC2)C[C@H]1C(F)F", "target": "genotype 1a (H77) stable HCV replicon in Huh-7-derived cells", "quantity": "EC50", "measured.number": 8}
{"item.smiles": "CC[C@@H]1[C@@H]2CN(C(=O)[C@H](C(C)(C)C)NC(=O)O[C@]3(C)CCC[C@H]3CCCCCc3nc4ccc(OC)cc4nc3O2)[C@@H]1C(=O)N[C@]1(C(=O)NS(=O)(=O)C2(C)CC2)C[C@H]1CC", "target": "genotype 1a (H77) stable HCV replicon in Huh-7-derived cells", "quantity": "EC50", "measured.number": 41}
{"item.smiles": "C=C[C@@H]1C[C@]1(NC(=O)[C@@H]1[C@H](CC)[C@@H]2CN1C(=O)[C@H](C(C)(C)C)NC(=O)O[C@@H]1C[C@H]1CCCCC(F)(F)c1nc3ccc(OC)cc3nc1O2)C(=O)NS(=O)(=O)C1CC1", "target": "genotype 1a (H77) stable HCV replicon in Huh-7-derived cells", "quantity": "EC50", "measured.number": 3.3}
{"item.smiles": "COc1ccc2nc3c(nc2c1)O[C@H]1CN(C(=O)[C@H](C(C)(C)C)NC(=O)O[C@@H]2C[C@@H]4C[C@@H]4[C@H]2CCCCC3)[C@H](C(=O)N[C@]2(C(=O)NS(=O)(=O)C3(C)CC3)C[C@H]2C(F)F)[C@@H]1C", "target": "genotype 1a (H77) stable HCV replicon in Huh-7-derived cells", "quantity": "EC50", "measured.number": 3.7}
{"item.smiles": "CC[C@@H]1[C@@H]2CN(C(=O)[C@H](C(C)(C)C)NC(=O)O[C@]3(C)CCC[C@H]3CCCCCc3nc4ccc(OC)cc4nc3O2)[C@@H]1C(=O)N[C@]1(C(=O)NS(=O)(=O)C2(C)CC2)C[C@H]1CCF", "target": "genotype 1a (H77) stable HCV replicon in Huh-7-derived cells", "quantity": "EC50", "measured.number": 195}

Quick one: EC50 for CC[C@@H]1[C@@H]2CN(C(=O)[C@H](C(C)(C)C)NC(=O)O[C@@H]3C[C@H]3CCCCCc3nc4ccc(OC)cc4nc3O2)[C@@H]1C(=O)N[C@]1(C(=O)NS(=O)(=O)C2(C)CC2)C[C@H]1C(F)F ?
4.4

Quick one: EC50 for CC[C@@H]1[C@@H]2CN(C(=O)[C@H](C(C)(C)C)NC(=O)O[C@@H]3CCC[C@H]3CCCCCc3nc4ccc(OC)cc4nc3O2)[C@@H]1C(=O)N[C@]1(C(=O)NS(=O)(=O)C2(C)CC2)C[C@H]1C(F)F ?
35

###

Test system: genotype 1a (H77) stable HCV replicon in Huh-7-derived cells
Experiment: Stable subgenomic HCV replicon EC50, genotype 1a (Renilla luciferase)
Type: cell-based, hepatitis C virus
Conditions: Hepatitis C virus, stable replicon genotype 1a, 72 h, read-out: EC50 1A RLUC
Procedure: Antiviral potency (EC50) was determined in both stable subgenomic HCV replicon cell lines and transient-transfected HCV replicon cells. […] To perform EC50 assays, cells from each HCV replicon were dispensed into 384-well plates. […] Seventy-two hours later, cells were lysed and Renilla luciferase activity were quantified as recommended by the manufacturer (Promega-Madison, Wis.). […]
// values below are reported log10 of EC50
# log10 transformed; quantity=EC50; unit=nM

{"molecule": "COc1ccc2nc3c(nc2c1)O[C@H]1CN(C(=O)[C@H](C(C)(C)C)NC(=O)O[C@H]2CC4CC(C4)[C@@H]2CCCCC3)[C@H](C(=O)N[C@]2(C(=O)NS(=O)(=O)C3CC3)C[C@H]2C(F)F)[C@@H]1C", "target": "genotype 1a (H77) stable HCV replicon in Huh-7-derived cells", "log10 of EC50": 2.56}

Quick one: log10 of EC50 for CC[C@@H]1[C@@H]2CN(C(=O)[C@H](C(C)(C)C)NC(=O)O[C@@H]3C[C@H]3CCCCC(F)(F)c3nc4ccc(OC(F)(F)F)cc4nc3O2)[C@@H]1C(=O)N[C@]1(C(=O)NS(=O)(=O)C2(C)CC2)C[C@H]1C(F)F ?
1.79

Quick one: log10 of EC50 for CCC[C@@H]1[C@@H]2CN(C(=O)[C@H](C(C)(C)C)NC(=O)O[C@@H]3C[C@H]3CCCCCc3nc4ccc(OC)cc4nc3O2)[C@@H]1C(=O)N[C@]1(C(=O)NS(=O)(=O)C2(C)CC2)C[C@H]1C(F)F ?
1.00

Quick one: log10 of EC50 for COc1ccc2nc3c(nc2c1)O[C@H]1CN(C(=O)[C@H](C(C)(C)C)NC(=O)O[C@@H]2C[C@H]2CCCCC3)[C@H](C(=O)N[C@]2(C(=O)NS(=O)(=O)C3(C)CC3)C[C@H]2C(F)F)[C@@H]1Cc1ccccc1 ?
1.77

Quick one: log10 of EC50 for COc1ccc2nc3c(nc2c1)O[C@H]1CN(C(=O)[C@H](C(C)(C)C)NC(=O)O[C@]2(C)C[C@H]2CCCCC3)[C@H](C(=O)N[C@]2(C(=O)NS(=O)(=O)C3(C)CC3)C[C@H]2C(F)F)[C@@H]1C ?
0.49

Quick one: log10 of EC50 for CC[C@@H]1[C@@H]2CN(C(=O)[C@H](C(C)(C)C)NC(=O)O[C@@H]3C[C@H]3CC/C=C/C(F)(F)c3nc4ccc(C#N)cc4nc3O2)[C@@H]1C(=O)N[C@]1(C(=O)NS(=O)(=O)C2(C)CC2)C[C@H]1C(F)F ?
0.77

Quick one: log10 of EC50 for CC[C@@H]1[C@@H]2CN(C(=O)[C@H](C(C)(C)C)NC(=O)O[C@@H]3C[C@H]3CCCCC(F)(F)c3nc4ccc(OC)cc4nc3O2)[C@@H]1C(=O)NC1(C(=O)NS(=O)(=O)C2(C)CC2)C[C@H]1CC (stereo partly drawn) ?
1.08

Quick one: log10 of EC50 for CC[C@@H]1[C@@H]2CN(C(=O)[C@H](C(C)(C)C)NC(=O)O[C@@H]3C[C@H]3CCCCC(F)(F)c3nc4ccccc4nc3O2)[C@@H]1C(=O)N[C@]1(C(=O)NS(=O)(=O)C2CC2)C[C@H]1CC ?
1.52

Quick one: log10 of EC50 for CC[C@@H]1[C@@H]2CN(C(=O)[C@H](C(C)(C)C)NC(=O)O[C@@H]3CCC[C@H]3CCCCCc3nc4ccc(OC)cc4nc3O2)[C@@H]1C(=O)N[C@]1(C(=O)NS(=O)(=O)C2CC2)C[C@H]1C(F)F ?
0.94
